Recorded pIC50 by entry
Target: JAK2 (Homo sapiens (Human), UniProt O60674)
Sequence (O60674 849-1124): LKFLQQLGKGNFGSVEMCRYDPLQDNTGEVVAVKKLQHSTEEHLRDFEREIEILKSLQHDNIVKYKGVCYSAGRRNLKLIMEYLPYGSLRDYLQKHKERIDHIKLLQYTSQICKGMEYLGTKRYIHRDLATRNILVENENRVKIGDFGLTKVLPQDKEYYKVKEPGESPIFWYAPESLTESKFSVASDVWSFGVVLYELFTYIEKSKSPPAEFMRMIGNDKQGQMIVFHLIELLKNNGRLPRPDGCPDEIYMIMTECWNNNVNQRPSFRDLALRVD
Experiment: Jak biochemical HTRF assay, JAK2
Details: HTRF biochemical assay, recombinant GST-tagged catalytic domain; read-out: JAK2 IC50
pIC50: −log10 of the molar value.
Measurement Label: pIC50

{"Compound": "N#C[C@H]1CCCC[C@@H]1n1nc(Nc2ccccc2)c2c(=O)[nH]ccc21", "Measurement Label": "pIC50", "Measured": 8.49}
{"Compound": "CC(C)(C)S(=O)(=O)c1ccc(Nc2nn([C@H]3CC(F)(F)C[C@H]3C#N)c3cc[nH]c(=O)c23)cc1 (single isomer, unassigned)", "Measurement Label": "pIC50", "Measured": 8.46}
{"Compound": "CC(C)C(c1ccc(Nc2nn([C@H]3CCCC[C@@H]3C#N)c3cc[nH]c(=O)c23)cc1)n1cc(C(=O)OC(C)(C)C)nn1 (single isomer, unassigned) [Example 15-57]", "Measurement Label": "pIC50", "Measured": 8.92}
{"Compound": "CC(=O)N1Cc2ccc(Nc3nn([C@H]4CCCC[C@@H]4C#N)c4cc[nH]c(=O)c34)cc2C1", "Measurement Label": "pIC50", "Measured": 9.04}
{"Compound": "N#C[C@H]1CCCC[C@@H]1n1nc(Nc2ccc(C3CCCN3)cc2)c2c(=O)[nH]ccc21 (single isomer, unassigned) [Example 3-72]", "Measurement Label": "pIC50", "Measured": 9.30}
{"Compound": "Cc1cc(Nc2nn([C@H]3CCCC[C@@H]3C#N)c3cc[nH]c(=O)c23)ccc1C(C)(C)n1ccnn1", "Measurement Label": "pIC50", "Measured": 9.77}

###

Target: JAK2 (Homo sapiens (Human), UniProt O60674)
Assay: Jak biochemical HTRF assay, JAK2
Conditions: HTRF biochemical assay, recombinant GST-tagged catalytic domain; read-out: JAK2 IC50
The threshold is 0.5 nM. Values of IC50 beneath it are tagged t; values meeting or exceeding it are tagged f.

{"Compound": "CC(C)(C)OC(=O)CCN1Cc2cc(Nc3nn([C@H]4CCCC[C@@H]4C#N)c4cc[nH]c(=O)c34)ccc2S1(=O)=O [Example 3-150]", "Group": "f"}
{"Compound": "C[C@@H](NCC(F)(F)F)c1ccc(Nc2nn([C@H]3CCCC[C@@H]3C#N)c3cc[nH]c(=O)c23)cc1 [Example 3-66]", "Group": "t"}
{"Compound": "N#C[C@H]1CCCC[C@@H]1n1nc(Nc2ccc(CNCC(F)(F)F)cc2)c2c(=O)[nH]ccc21 [Example 3-57]", "Group": "f"}
{"Compound": "CC(C)NC(c1ccc(Nc2nn([C@H]3CCC[C@@H]3C#N)c3cc[nH]c(=O)c23)cc1)C(F)(F)F (single isomer, unassigned) [Example 3-115]", "Group": "t"}
{"Compound": "CC(C)N1Cc2ccc(Nc3nn([C@H]4CCCC[C@@H]4C#N)c4cc[nH]c(=O)c34)cc2C1 [Example 3-74]", "Group": "t"}
{"Compound": "C[C@H](NC1CCC(n2nc(Nc3ccc(Cl)cc3)c3c(=O)[nH]ccc32)C(C#N)C1)C1CC1 (stereo in doubt) [Example 4-4]", "Group": "f"}
{"Compound": "N#C[C@H]1CCCC[C@@H]1n1nc(Nc2ccc(-c3cnco3)cc2)c2c(=O)[nH]ccc21 [Example 15-8]", "Group": "t"}
{"Compound": "CC(C)(C)NS(=O)(=O)c1ccc(Nc2nn([C@H]3CCC[C@@H]3C#N)c3cc[nH]c(=O)c23)cc1 [Example 3-107]", "Group": "t"}
{"Compound": "N#C[C@H]1CCCC[C@@H]1n1nc(Nc2ccc3c(c2)CC2(CCCCC2)S3(=O)=O)c2c(=O)[nH]ccc21 [Example 21-2]", "Group": "t"}
{"Compound": "CC(C)(C)OC(=O)NCc1cccc(Nc2nn([C@H]3CCCC[C@@H]3C#N)c3cc[nH]c(=O)c23)c1 [Example 3-16]", "Group": "f"}
{"Compound": "COCCC(C)(C)N1Cc2cc(Nc3nn([C@H]4CCCC[C@@H]4C#N)c4cc[nH]c(=O)c34)ccc2S1(=O)=O [Example 3-161]", "Group": "t"}
{"Compound": "CC(C)CN1Cc2cc(Nc3nn([C@H]4CCCC[C@@H]4C#N)c4cc[nH]c(=O)c34)ccc2S1(=O)=O [Example 3-62]", "Group": "t"}
{"Compound": "CC1(N2Cc3cc(Nc4nn([C@H]5CCCC[C@@H]5C#N)c5cc[nH]c(=O)c45)ccc3S2(=O)=O)CCC(F)(F)CC1 [Example 15-73]", "Group": "f"}
